src = ChEMBL document CHEMBL4823320

target: Nonstructural protein 3 (Zika virus) (UniProt A0A024AXB9); assay: Inhibition of ZIKV NS2B-NS3 protease expressed in Escherichia coli BL21(DE3) using Boc-Gly-Arg-Arg-AMC as substrate at 20 uM by FRET assay
Sequence (A0A024AXB9 as listed by the source): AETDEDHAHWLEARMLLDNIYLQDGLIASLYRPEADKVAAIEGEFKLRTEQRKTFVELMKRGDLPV
Is inhibition at least 40%? Then YES. If not, NO.

Examples with answers:
[
  {
    "Mol Smiles": "O=C(Nc1nc2cc(O)c(O)cc2s1)C(c1ccc(O)cc1)c1ccc(O)cc1",
    "Class Assignment": "YES"
  },
  {
    "Mol Smiles": "O=C(Nc1ccccc1)[C@@H]1CCCN1C(=O)c1ccc2cc(O)c(O)cc2c1",
    "Class Assignment": "YES"
  },
  {
    "Mol Smiles": "O=C(O)C[C@H](NC(=O)c1ccccc1)C(=O)Nc1nc2cc(O)c(O)cc2s1",
    "Class Assignment": "YES"
  }
]

Now look at this one.
Identify whether the reported inhibition of the following compound is 40% or greater: Cc1ccc(S(=O)(=O)N[C@H](C)C(=O)Nc2nc3cc(O)c(O)cc3s2)cc1 NO
